Target: KSP motor domain (Homo sapiens, UniProt P52732)
Sequence (P52732 18-359 limits assumed): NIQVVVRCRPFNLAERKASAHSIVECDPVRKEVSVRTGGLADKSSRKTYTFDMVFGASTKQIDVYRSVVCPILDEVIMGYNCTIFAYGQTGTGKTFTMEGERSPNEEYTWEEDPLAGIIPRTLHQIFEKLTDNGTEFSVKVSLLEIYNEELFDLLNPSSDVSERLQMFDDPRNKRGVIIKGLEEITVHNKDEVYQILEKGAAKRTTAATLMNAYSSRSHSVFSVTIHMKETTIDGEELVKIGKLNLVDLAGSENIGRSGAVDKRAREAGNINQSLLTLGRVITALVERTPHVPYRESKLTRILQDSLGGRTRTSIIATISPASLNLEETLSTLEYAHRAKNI
Experiment: biochemical
Conditions: KSP inhibitory activity, end-point assay; class symbols (Table 1); read-out: IC50
pIC50: −log10 of the molar value.
PROPERTY NAME: pIC50

> print(dat)
                                    compound      observed
 1  CCC(CC)(CC)C1CCc2nc3sc(C#N)c(N)c3cc2C1 (stereo not drawn)  5.00 to 6.00
 2      N#Cc1sc2nc3c(cc2c1N)C/C(=C/C1CC1)CC3        < 5.00
 3  Cc1oncc1C(=O)Nc1cccc([C@@H](CN)NC(=O)c2cc3cc4c(nc3s2)CC[C@@H](C(C)(C)C)C4)c1        > 7.00
 4  CC(C)(C)C1CCc2nc3sc(S(C)(=O)=O)c(N)c3cc2C1 (stereo not drawn)  6.00 to 7.00
 5  Cn1nc(C(F)(F)F)c(C(=O)Nc2cccc([C@@H](CN)NC(=O)c3cc4cc5c(nc4s3)CC[C@@H](C(C)(C)C)C5)c2)c1Cl        > 7.00
 6  CCCC(C)(C)C1CCc2nc3sc(C#N)c(N)c3cc2C1 (stereo not drawn)  6.00 to 7.00
 7  CC(CO)NC(=O)c1sc2nc3c(cc2c1N)CC(C(C)(C)C)CC3 (stereo in doubt)  5.00 to 6.00
 8  N#Cc1sc2nc3c(cc2c1N)CC(c1ccccc1)CC3 (stereo not drawn)        < 5.00
 9  CC(C)(C)C1CCc2nc3sc(C(=O)Nc4ccc(O)cc4N)cc3cc2C1 (stereo not drawn) [Example 226G]  6.00 to 7.00
10  COCc1cc2cc3c(nc2s1)CCC(C(C)(C)C)C3 (stereo not drawn)  5.00 to 6.00
11  CC(C)(C)[C@@H]1CCc2nc3sc(C(=O)N[C@H](CN)c4cccc(NC(=O)c5ccn(-c6ccccc6)n5)c4)cc3cc2C1        > 7.00
12  CC(C)(C)[C@@H]1CCc2nc3sc(C(=O)N[C@H](CN)c4cccc(NC(=O)c5nscc5N)c4)cc3cc2C1  6.00 to 7.00
13  N#Cc1sc2nc3c(cc2c1N)CCC(C(F)(F)F)C3 (stereo not drawn)        < 5.00
14  CCC(C)(C)C1CCc2nc3sc(C#N)c(N)c3cc2C1 (stereo not drawn)        > 7.00
15  CC(C)(C)C1CCc2cc3cc(C#N)sc3nc2CC1 (stereo not drawn)  5.00 to 6.00
16  CC(C)(C)[C@@H]1CCc2nc3sc(C(=O)N[C@H](CN)c4cccc(NC(=O)c5cncc(N)n5)c4)cc3cc2C1        > 7.00
17  CC(C)(C)C1CCc2nc3sc(C(N)=O)cc3cc2C1 (single isomer, unassigned; (+)) [Example 68]        > 7.00
18  CC(C)(C)C1CCc2nc3sc(C(=O)NCCCN4CCCC4=O)cc3cc2C1 (stereo not drawn)  5.00 to 6.00
19  CC(C)(C)C1CCc2nc3sc(C(=O)N[C@@H](Cc4ccc(O)cc4)C(=N)N)cc3cc2C1 (stereo partly drawn)  5.00 to 6.00
20  C[C@@H]1CNCCN1C(=O)Nc1cccc([C@@H](CN)NC(=O)c2cc3cc4c(nc3s2)CC[C@@H](C(C)(C)C)C4)c1        > 7.00
21  CC1Cc2nc3sc(C(N)=O)cc3cc2CC1C(C)(C)C (stereo not drawn)  6.00 to 7.00
22  Cn1ncc(C(=O)Nc2cccc([C@@H](CN)NC(=O)c3cc4cc5c(nc4s3)CC[C@@H](C(C)(C)C)C5)c2)c1C(F)(F)F        > 7.00
23  Cc1cc(C(=O)Nc2cccc([C@@H](CN)NC(=O)c3cc4cc5c(nc4s3)CC[C@@H](C(C)(C)C)C5)c2)n[nH]1        > 7.00
24  CCC(C)(C)C1CCc2nc3sc(C(N)=O)cc3c(Cl)c2C1 (stereo not drawn)  5.00 to 6.00
25  CC(C)(C)C1CCc2nc3sc(C(=O)N[C@H](CN)c4ccc([N+](=O)[O-])cc4)cc3cc2C1 (stereo partly drawn)        > 7.00
26  CC(C)(C)C1CCc2nc3sc(C(=O)NC(CN)c4cccc(NC(=O)c5cnccn5)c4)cc3cc2C1 (stereo not drawn)        > 7.00
27  CC(C)(C)C(C)(C)C1CCc2nc3sc(C#N)c(N)c3cc2C1 (stereo not drawn)  5.00 to 6.00
28  CC(C)(C)[C@@H]1CCc2nc3sc(C(=O)N[C@H](CN)c4ccc(NC(=O)c5cscn5)cc4)cc3cc2C1        > 7.00
29  CC(C)(C)C1CCc2nc3sc(-c4ncc(CO)o4)cc3cc2C1 (stereo not drawn)  5.00 to 6.00
30  CC(C)C1Cc2cc3cc(C#N)sc3nc2CC1C (stereo not drawn)  6.00 to 7.00
31  CC(C)(C)C1CCc2nc3sc(N)nc3cc2C1 (stereo not drawn)        < 5.00
32  CC(C)(C)C1CCc2nc3sc(C(=O)N[C@H](C#N)Cc4ccc(O)cc4)cc3cc2C1 (stereo partly drawn)  6.00 to 7.00
33  CC(=O)Nc1cccc(C(CN)NC(=O)c2cc3cc4c(nc3s2)CCC(C(C)(C)C)C4)c1 (stereo not drawn)        > 7.00
